# assay.summary: Apparent acid dissociation constant (pK) was determined
# Format: ADME
# test.context: read-out: pK
Below: a set of entries, each annotated with reported pKa.
Please reply with the value in numeric form only.

structure.as.smiles: Cc1cnc(C)c(O)c1C=O
property.measured: pKa
numeric.readout: 4.15

# next compound below
Ask: For the compound `CCOP(=O)(Cc1cnc(C)c(O)c1CO)OCC` , what pKa is on record?
Result: 4.53
